Please respond with reported TGI for every item in the list.
tested on: SF-268 CNS; assay: NCI tumour cell line growth inhibition, 48 h

// known answers, use as guide
# COMPOUND, MEASUREMENT_TYPE, RESULT
data = [
    ("CCOC(=O)[C@@H](C)C[C@H](Cc1ccccc1)NC(=O)c1csc([C@@H](C[C@H](C(C)C)N(C)C(=O)[C@@H](NC(=O)[C@H]2C[C@H](O[Si](C)(C)C(C)(C)C)CCN2C)C(C)C)OC(C)=O)n1", "TGI", "> 8.33 µM"),
    ("Cc1cc2nc3c(=O)n(C)c(=O)nc-3n(-c3ccc(Cl)cc3)c2cc1C", "TGI", "36.7 µM"),
    ("Cc1c(CCCl)c(=O)n2c([nH]c3ccccc32)c1C#N", "TGI", "4.41 µM"),
    ("O=c1cc(-c2ccccc2)[nH]c2cc(Cl)cc(Cl)c12", "TGI", "> 100 µM"),
    ("Clc1nc(Oc2ccccc2)nc(-c2cn(-c3ccccc3)c3ccccc23)n1", "TGI", "13.9 µM"),
    ("CN(C(=O)c1ccc(Cl)s1)C(=S)N(C)C(=O)c1ccc(Cl)s1", "TGI", "> 10 µM"),
    ("COc1ccc(-c2c(C3=NCCN3)nnn2-c2ccccc2)cc1", "TGI", "> 100 µM"),
    ("O=C(Nc1ccc(Cl)cc1)Nc1ccc(Cl)c(Cl)c1", "TGI", "> 100 µM"),
]

Below are some compounds; for each one, tell me its TGI.
1. COc1ccc(-c2c(C#N)c(-c3ccccc3)n(NS(=O)(=O)c3ccccc3)c(=O)c2C#N)cc1
2. O=C(O)c1ccccc1/C=N\NC1=NCCCCN1
3. COC1=CC23C=CC1[C@@H](c1ccccc1)C2=C(C)C(=O)N3C(=O)NC1CCCCC1 (stereo partly drawn)
4. NC(=O)CC(Nc1ncc2c(n1)-c1ccccc1OC2)C(=O)O (stereo not drawn)

Reply text:
1: > 100 µM; 2: > 100 µM; 3: 33.6 µM; 4: > 100 µM

Inquiry: What measured TGI is associated with O=C(NCCO)c1ccc(Cl)cc1 on SF-268 CNS?
Reply text: > 100 µM

###

Assign TGI to each entry below.
test system: HCT-116 colon; experiment: NCI tumour cell line growth inhibition, 48 h

// solved cases for TGI follow
# COMPOUND, TGI
measured = [
    ("Cc1cc(/C=C2\\SC(=Nc3ccccc3)N(C3CCCC3)C2=O)c(C)n1-c1ccc(Cl)cc1", "> 100 µM"),
    ("O=[N+]([O-])c1c(/C=N/Nc2ccccc2)oc(-c2ccc3c(c2)OCO3)c1-c1ccc2c(c1)OCO2", "> 100 µM"),
    ("CCOC(=O)C1=C(C)NC(=S)NC1c1cccc(O)c1 (stereo unspecified)", "> 100 µM"),
    ("COc1ccc2c(c1)CCc1c-2n(CCN(C)C)c2ccc(OC)cc12", "> 100 µM"),
    ("COc1ccc2c(c1)C(=O)CC(N)C2 (stereo unspecified)", "> 100 µM"),
]

# evaluate next
Inquiry: Name the reported TGI value associated with the compound O=C(NCCNCCO)N/N=C/c1ccc(Cl)cc1
Reply text: > 100 µM

###

Assign TGI to each entry below.
system: SR leukemia; test: NCI tumour cell line growth inhibition, 48 h

Sample records with TGI:
# COMPOUND, TESTED_ON, RESULT
rows = [
    ("COc1cc(/C=C/c2cc(C(F)(F)F)[nH]c(=O)n2)ccc1OCc1ccccc1F", "SR leukemia", "43.3 µM"),
    ("O=C(C(O)c1cn(Cc2ccccc2)c2ccccc12)N1CCCCC1 (stereo not given)", "SR leukemia", "> 100 µM"),
    ("COC(=O)C1(C(=O)OC)N=C(C)OC1C(C)C (stereo not given)", "SR leukemia", "> 100 µM"),
    ("O=[N+]([O-])c1c(/C=N/Nc2ccccc2)oc(-c2ccc3c(c2)OCO3)c1-c1ccc2c(c1)OCO2", "SR leukemia", "29.8 µM"),
]

Inquiry: For the compound C=CC(=O)N1CCCC(n2nc(-c3ccc(Oc4ccccc4)cc3)c3c(N)ncnc32)C1 (stereo not given) , what TGI is on record?
Reply text: 34.1 µM
